Tested on: ROS17/2.8 cells
test method notes: Cell growth of ROS17/2.8 cells by the MTT method (formed formazan)
Type: cell-based, rat
protocol conditions: amount of formed formazan, Solution 7 = 1.00
Overview of recorded Relative index of Solution 8 (Test Compound alone) for various molecules
Provide a numeric answer; units are not to be included.

# annotated cases, reported Relative index of Solution 8 (Test Compound alone) shown
1) C=Cc1sc(C)nc1-c1ccc(OCCCCCOc2ccc(/C(N)=N/O)cc2)cc1 = 1.00
2) CC(C)c1nc(-c2ccc(OCCCCCOc3ccc(/C(N)=N/O)cc3)cc2)c(CCN(C(=O)c2ccncc2)C2CC2)s1 = 0.99
3) CC(C)c1sc(N(C)C)nc1-c1ccc(OCCCCCOc2ccc(/C(N)=N/O)cc2)cc1 = 0.97

Exercise: # lookup: Relative index of Solution 8 (Test Compound alone) of `CCc1nc(-c2ccc(OCCCCCOc3ccc(/C(N)=N/O)cc3)cc2)c(CC2CCCC2)s1`
Key: 1.05

Exercise: Fill in the blank: the reported Relative index of Solution 8 (Test Compound alone) of `Cc1sc(N(C)Cc2cccnc2)nc1-c1ccc(OCCCCCOc2ccc(/C(N)=N/O)cc2)cc1` is ____.
Key: 1.08

Exercise: May I ask what Relative index of Solution 8 (Test Compound alone) has been recorded for `Cc1sc(N(C)CCO)nc1-c1ccc(OCCCCCOc2ccc(/C(N)=N/O)cc2)cc1` ?
Key: 1.09

Exercise: Need Relative index of Solution 8 (Test Compound alone) of `CC(C)c1nc(-c2ccc(OCCCCCOc3ccc(/C(N)=N/O)cc3)cc2)c(CCN2CCSCC2)s1` , thanks.
Key: 0.98

Exercise: Using the record for `CNc1nc(-c2ccc(OCCCCCOc3ccc(/C(N)=N/O)cc3)cc2)c(CC2CCCC2)s1` , report its Relative index of Solution 8 (Test Compound alone).
Key: 1.03

Exercise: Given the molecule `CN(CCN1CCOCC1)c1nc(-c2ccc(OCCCCCOc3ccc(/C(N)=N/O)cc3)cc2)c(C2CCCC2)s1` , what is its reported Relative index of Solution 8 (Test Compound alone)?
Key: 1.03

Exercise: Please give the measured Relative index of Solution 8 (Test Compound alone) for this molecule: `Cc1nc(-c2ccc(OCCCCCOc3ccc(/C(N)=N/O)cc3)cc2)c(Cn2ccnc2)s1`
Key: 0.97

Exercise: Recorded Relative index of Solution 8 (Test Compound alone) of `CNC(=O)c1sc(N)nc1-c1ccc(OCCCCCOc2ccc(/C(N)=N/O)cc2)cc1` , please.
Key: 1.01

Exercise: Any idea what Relative index of Solution 8 (Test Compound alone) was measured for `Cc1nc(-c2ccc(OCc3cccc(COc4ccc(/C(N)=N/O)cc4)c3)cc2)c(C(C)C)s1` ?
Key: 1.10

Exercise: # lookup: Relative index of Solution 8 (Test Compound alone) of `CCN(CC)CCc1sc(C)nc1-c1ccc(OCCCCCOc2ccc(/C(N)=N/O)cc2)cc1`
Key: 1.02

Exercise: State the recorded Relative index of Solution 8 (Test Compound alone) for this entry: `Cc1nc(-c2ccc(OCCCCCN(C)c3ccc(/C(N)=N/O)cc3)cc2)c(C(C)C)s1`
Key: 1.08

Exercise: Look up Relative index of Solution 8 (Test Compound alone) for this molecule: `Cc1nc(-c2ccc(OCCCCCOc3ccc(/C(N)=N/O)cc3)cc2)c(CCCl)s1`
Key: 1.05

Exercise: Requested read-out: Relative index of Solution 8 (Test Compound alone). Entry: `Cc1sc(N(C)Cc2ccccc2)nc1-c1ccc(OCCCCCOc2ccc(/C(N)=N/O)cc2)cc1`
Key: 1.02

###

Tested on: ROS17/2.8 cells
test method notes: Cell growth of ROS17/2.8 cells by the MTT method (formed formazan)
Type: cell-based, rat
protocol conditions: Test Compound in combination with 1α,25-dihydroxyvitamin D3; percentage to Solution 7 addition group; about 48 hours; average ± standard deviation of four wells
experimental endpoint: Amount of formed formazan, Solution 10 (a group of a drug combination)

In the examples that follow, each entry is paired with its recorded Amount of formed formazan, Solution 10 (a group of a drug combination).
1) CCCN(CCC)c1nc(-c2ccc(OCCCCCOc3ccc(/C(N)=N/O)cc3)cc2)c(C(C)C)s1 = 118 ± 3.7 # %
2) CCc1sc(N(C)Cc2ccccc2)nc1-c1ccc(OCCCCCOc2ccc(/C(N)=N/O)cc2)cc1 = 111 ± 1.3 # %

Exercise: Give its Amount of formed formazan, Solution 10 (a group of a drug combination) value. Item: `Cc1nc(-c2ccc(OCCCCCOc3ccc(/C(N)=N/O)cc3)cc2)c(CCNC(C)C)s1`
Key: 118 ± 2.9 ## %

Exercise: Which Amount of formed formazan, Solution 10 (a group of a drug combination) is listed for `CCCN(CCC)c1nc(-c2ccc(OCCCCCOc3ccc(/C(N)=N/O)cc3)cc2)c(CC2CCCC2)s1` ?
Key: 113 ± 1.3 # %

Exercise: Quick check: Amount of formed formazan, Solution 10 (a group of a drug combination) of `Cc1nc(-c2ccc(OCCCCCN(C)c3ccc(/C(N)=N/O)cc3)cc2)c(C(C)C)s1` ?
Key: 119 ± 4.8 # %

Exercise: Dear colleague, I am looking for the recorded Amount of formed formazan, Solution 10 (a group of a drug combination) of the following compound: `Cc1sc(N(C)Cc2cccnc2)nc1-c1ccc(OCCCCCOc2ccc(/C(N)=N/O)cc2)cc1`
Key: 120 ± 2.1 ## %

Exercise: I'd like to know its Amount of formed formazan, Solution 10 (a group of a drug combination). The compound in question is `CC(C)c1nc(-c2ccc(OCCCCCOc3ccc(/C(N)=N/O)cc3)cc2)c(CCN2CCSCC2)s1`
Key: 112 ± 0.9 ## %

Exercise: // lookup Amount of formed formazan, Solution 10 (a group of a drug combination) for `Cc1nc(-c2ccc(OCCCCCOc3ccc(/C(N)=N/O)c(F)c3)cc2)c(C(C)C)s1`
Key: 113 ± 1.0 ## %

Exercise: Return reported Amount of formed formazan, Solution 10 (a group of a drug combination); argument: `CNc1nc(-c2ccc(OCCCCCOc3ccc(/C(N)=N/O)cc3)cc2)c(CC2CCCC2)s1`
Key: 113 ± 1.7 ## %

Exercise: Query (compound): `CN(CCN1CCOCC1)c1nc(-c2ccc(OCCCCCOc3ccc(/C(N)=N/O)cc3)cc2)c(C2CCCC2)s1` ; field requested: Amount of formed formazan, Solution 10 (a group of a drug combination)
Key: 115 ± 0.8 ## %

Exercise: Entry under review: `Cc1sc(N(C)Cc2ccccc2)nc1-c1ccc(OCCCCCOc2ccc(/C(N)=N/O)cc2)cc1` . Reported Amount of formed formazan, Solution 10 (a group of a drug combination)?
Key: 115 ± 2.3 ## %

Exercise: Would you mind telling me what Amount of formed formazan, Solution 10 (a group of a drug combination) value was observed for `Cc1nc(-c2ccc(OCc3cccc(COc4ccc(/C(N)=N/O)cc4)c3)cc2)c(C(C)C)s1` ?
Key: 122 ± 2.1 ## %

Exercise: Reported Amount of formed formazan, Solution 10 (a group of a drug combination), compound `CC(C)c1nc(-c2ccc(OCCCCCOc3ccc(/C(N)=N/O)cc3)cc2)c(CCN(C(=O)c2ccncc2)C2CC2)s1` : ____
Key: 113 ± 1.2 ## %

Exercise: I am curious: what Amount of formed formazan, Solution 10 (a group of a drug combination) value has been reported for `CN(C)c1nc(-c2ccc(OCCCCCOc3ccc(/C(N)=N/O)cc3)cc2)c(CCN2CCOCC2)s1` ?
Key: 114 ± 2.6 ## %

Exercise: What does the data say about its Amount of formed formazan, Solution 10 (a group of a drug combination)? Entry: `Cc1nc(-c2ccc(OCCCCCOc3ccc(/C(N)=N/O)cc3)cc2)c(N(C)C)s1`
Key: 112 ± 3.0 ## %

Exercise: Param item = `CCCN(CCC)c1nc(-c2ccc(OCCCCCOc3ccc(/C(N)=N/O)cc3)cc2)c(CC)s1` ; retrieve measured Amount of formed formazan, Solution 10 (a group of a drug combination).
Key: 115 ± 4.4 # %

Values compiled from patent US20110306580A1.
